# credit: paper PMC4550478

protocolText: Cytotoxicity, resazurin, HepG2
Assay type: cell-based
cond: human; no cytotoxicity up to 100 μM, 24 hours incubation; read-out: CC50 HepG2
resultType: CC50 at 24 h

What does the data say about its CC50 at 24 h? Entry: Cc1ncc([N+](=O)[O-])n1CCN=[N+]=[N-] [Compound 3]
> 100 µM

====

Tested on: C. difficile NAP1/027 ATCC BAA-1803
protocolText: MIC broth microdilution, C. difficile NAP1/027 ATCC BAA-1803
Format: cell-based, Clostridium difficile
cond: Clostridioides difficile, ATCCBAA1803; 24 hr incubation; read-out: MIC C. difficile NAP1/027 ATCC BAA-1803 24 hr
Method: All compounds were tested for activity against a set of anaerobic C. difficile bacteria (630 ATCC BAA-1382, NAP1/027 M7404, NAP1/027 ATCC BAA-1803, VPI10463 ATCC 43255, CD26A54_S and CD26A54_R) and representative ESKAPE pathogens S. aureus (MRSA ATCC 43300), E. coli (ATCC 25922), K. pneumoniae (ATCC 700603), A. baumannii (ATCC 19606) and P. aeruginosa (ATCC 27853) using a standard broth microdilution assay. […]
resultType: MIC (µg/mL)
Give bare numbers, in µg/mL.

{"columns": ["smilesData", "MIC [µg/mL]"],
 "data": [
  ["Cc1ncc([N+](=O)[O-])n1CCn1cc(-c2ccccc2)nn1", 0.5],
  ["Cc1ncc([N+](=O)[O-])n1CCn1cc(CCO)nn1", 8],
  ["Cc1ncc([N+](=O)[O-])n1CCn1cc(C(=O)O)nn1", 64]
]}

Would you be so kind as to report MIC for each listed record?
1. Cc1ccc(-c2cn(CCn3c([N+](=O)[O-])cnc3C)nn2)cc1
2. Cc1ncc([N+](=O)[O-])n1CCO
3. Cc1ncc([N+](=O)[O-])n1CCn1cc(CO)nn1
4. Cc1ncc([N+](=O)[O-])n1CCn1cc(-c2ccc(Cl)c(Cl)c2)nn1
5. Cc1ncc([N+](=O)[O-])n1CCn1cc(Cc2ccccc2)nn1
6. Cc1ncc([N+](=O)[O-])n1CCn1cc(CN(C)Cc2ccccc2)nn1
7. Cc1ncc([N+](=O)[O-])n1CCn1cc(-c2ncccn2)nn1
8. Cc1ncc([N+](=O)[O-])n1CCn1cc(-c2ccsc2)nn1

1. 0.5
2. 0.5
3. 16
4. 1
5. 0.5
6. 2
7. 2
8. 0.5

Would you be so kind as to report MIC for each listed record?
1. COc1ccc(-c2cn(CCn3c([N+](=O)[O-])cnc3C)nn2)cc1
2. Cc1ncc([N+](=O)[O-])n1CCn1cc(-c2ccc(Cl)cc2)nn1
3. Cc1ncc([N+](=O)[O-])n1CCn1cc(Cn2cccn2)nn1
4. Cc1ncc([N+](=O)[O-])n1CCn1cc(-c2cncnc2)nn1
5. Cc1ncc([N+](=O)[O-])n1CCn1cc(-c2ccccn2)nn1
6. COC(=O)c1cn(CCn2c([N+](=O)[O-])cnc2C)nn1

[0.5, 0.25, 1, 1, 0.5, 1]

====

protocolText: Cytotoxicity, resazurin, HEK293
Type: cell-based
cond: human
resultType: CC50 at 24 h

What does the data say about its CC50 at 24 h? Entry: Cc1ncc([N+](=O)[O-])n1CCO
> 100 µM

====

System: G. lamblia BRIS/83/HEPU/106 (106)
protocolText: ATP-bioluminescence growth and survival assay, G. lamblia 106
Format: cell-based
cond: Giardia duodenalis, read-out: EC50 G. lamblia 106
pEC50: −log10 of the molar value.
// NOT MET strictly below 6 in pEC50; MET otherwise

Some solved entries appear below for comparison.
{"columns": ["molecule", "measurementTarget", "assignedLabel"],
 "data": [
  ["Cc1ncc([N+](=O)[O-])n1CCn1cc(-c2ccccc2)nn1", "G. lamblia BRIS/83/HEPU/106 (106)", "MET"],
  ["COC(=O)c1cn(CCn2c([N+](=O)[O-])cnc2C)nn1", "G. lamblia BRIS/83/HEPU/106 (106)", "NOT MET"],
  ["Cc1ncc([N+](=O)[O-])n1CCn1cc(Cc2ccccc2)nn1", "G. lamblia BRIS/83/HEPU/106 (106)", "MET"]
]}

Form field: pEC50 at least 6? Entry: COc1ccc(-c2cn(CCn3c([N+](=O)[O-])cnc3C)nn2)cc1
MET

Form field: pEC50 at least 6? Entry: Cc1ncc([N+](=O)[O-])n1CCn1cc(-c2ccccn2)nn1
MET

Form field: pEC50 at least 6? Entry: Cc1ncc([N+](=O)[O-])n1CCn1cc(C(O)c2ccccc2)nn1 (centres unmarked)
NOT MET

Form field: pEC50 at least 6? Entry: Cc1ncc([N+](=O)[O-])n1CCn1cc(-c2ccsc2)nn1
MET

Form field: pEC50 at least 6? Entry: Cc1ccc(-c2cn(CCn3c([N+](=O)[O-])cnc3C)nn2)cc1
MET

====

Test system: H. pylori clinical isolate 13/25
protocolText: MIC agar dilution, H. pylori 13/25
Format: cell-based
cond: Helicobacter pylori, MtzS clinical isolate
resultType: MIC (µg/mL)
Give bare numbers, in µg/mL.

Before answering, review these 2 worked examples.
{"columns": ["smilesData", "MIC, µg/mL"],
 "data": [
  ["Cc1ncc([N+](=O)[O-])n1CCn1cc(Cn2cccn2)nn1", 2],
  ["Cc1ncc([N+](=O)[O-])n1CCn1cc(CN(C)Cc2ccccc2)nn1", 2]
]}

// next item, MIC requested
Could you share what MIC was measured for Cc1ncc([N+](=O)[O-])n1CCn1cc(-c2ccccn2)nn1 , tested on H. pylori clinical isolate 13/25?
1

====

Task for the reader: assign each of the following compounds its reported log10 MIC.
Test system: C. difficile 630 ATCC BAA-1382
Friendly reminder: values = log10 of MIC, unit µg/mL.

{"columns": ["compound", "measurementTarget", "log10 MIC"],
 "data": [
  ["Cc1ncc([N+](=O)[O-])n1CCO", "C. difficile 630 ATCC BAA-1382", -0.30],
  ["Cc1ncc([N+](=O)[O-])n1CCn1cc(Cc2ccccc2)nn1", "C. difficile 630 ATCC BAA-1382", -0.30],
  ["Cc1ncc([N+](=O)[O-])n1CCn1cc(-c2ccc(Cl)c(Cl)c2)nn1", "C. difficile 630 ATCC BAA-1382", -0.30],
  ["Cc1ncc([N+](=O)[O-])n1CCn1cc(C(=O)O)nn1", "C. difficile 630 ATCC BAA-1382", 1.81],
  ["Cc1ncc([N+](=O)[O-])n1CCn1cc(CO)nn1", "C. difficile 630 ATCC BAA-1382", 1.20],
  ["Cc1ncc([N+](=O)[O-])n1CCn1cc(-c2ccc(Cl)cc2)nn1", "C. difficile 630 ATCC BAA-1382", -0.30],
  ["Cc1ncc([N+](=O)[O-])n1CCn1cc(-c2ncccn2)nn1", "C. difficile 630 ATCC BAA-1382", 0.30],
  ["Cc1ccc(-c2cn(CCn3c([N+](=O)[O-])cnc3C)nn2)cc1", "C. difficile 630 ATCC BAA-1382", -0.30],
  ["Cc1ncc([N+](=O)[O-])n1CCn1cc(C(O)c2ccccc2)nn1 (stereo not drawn)", "C. difficile 630 ATCC BAA-1382", 0.00],
  ["COC(=O)c1cn(CCn2c([N+](=O)[O-])cnc2C)nn1", "C. difficile 630 ATCC BAA-1382", 0.00]
]}

Would you be so kind as to report log10 MIC for each listed record?
1. Cc1ncc([N+](=O)[O-])n1CCn1cc(-c2ccccc2)nn1
2. Cc1ncc([N+](=O)[O-])n1CCn1cc(CN(C)Cc2ccccc2)nn1
3. Cc1ncc([N+](=O)[O-])n1CCn1cc(Cn2cccn2)nn1

1. -0.30
2. 0.30
3. 0.00

Would you be so kind as to report log10 MIC for each listed record?
1. Cc1ncc([N+](=O)[O-])n1CCn1cc(-c2cncnc2)nn1
2. Cc1ncc([N+](=O)[O-])n1CCn1cc(CCO)nn1
3. Cc1ncc([N+](=O)[O-])n1CCn1cc(-c2ccccn2)nn1

1: 0.00; 2: 0.90; 3: -0.30

Would you be so kind as to report log10 MIC for each listed record?
1. COc1ccc(-c2cn(CCn3c([N+](=O)[O-])cnc3C)nn2)cc1
2. Cc1ncc([N+](=O)[O-])n1CCn1cc(-c2ccsc2)nn1

[-0.30, -0.30]

====

Task for the reader: assign each of the following compounds its reported MIC.
Tested on: C. difficile NAP1/027 CD26A54_S
protocolText: MIC broth microdilution, C. difficile CD26A54_S
Format: cell-based, Clostridium difficile
cond: Clostridioides difficile; CD26A54_S, MtzS (intermediary), 48 h growth; read-out: MIC C. difficile NAP1/027 CD26A54_S 48 h
One number for each entry, in µg/mL.

Before answering, review these 5 worked examples.
{"columns": ["compound", "measurementTarget", "unitSymbol", "measValue"],
 "data": [
  ["Cc1ncc([N+](=O)[O-])n1CCn1cc(Cc2ccccc2)nn1", "C. difficile NAP1/027 CD26A54_S", "µg/mL", 1],
  ["Cc1ncc([N+](=O)[O-])n1CCn1cc(CN(C)Cc2ccccc2)nn1", "C. difficile NAP1/027 CD26A54_S", "µg/mL", 2],
  ["Cc1ncc([N+](=O)[O-])n1CCn1cc(-c2ccc(Cl)c(Cl)c2)nn1", "C. difficile NAP1/027 CD26A54_S", "µg/mL", 1],
  ["Cc1ncc([N+](=O)[O-])n1CCn1cc(CCO)nn1", "C. difficile NAP1/027 CD26A54_S", "µg/mL", 8],
  ["Cc1ncc([N+](=O)[O-])n1CCn1cc(-c2cncnc2)nn1", "C. difficile NAP1/027 CD26A54_S", "µg/mL", 1]
]}

Would you be so kind as to report MIC for each listed record?
1. Cc1ncc([N+](=O)[O-])n1CCn1cc(-c2ccccc2)nn1
2. Cc1ncc([N+](=O)[O-])n1CCn1cc(-c2ccsc2)nn1
3. COC(=O)c1cn(CCn2c([N+](=O)[O-])cnc2C)nn1

[1, 1, 2]

Would you be so kind as to report MIC for each listed record?
1. Cc1ccc(-c2cn(CCn3c([N+](=O)[O-])cnc3C)nn2)cc1
2. Cc1ncc([N+](=O)[O-])n1CCn1cc(-c2ccc(Cl)cc2)nn1
3. Cc1ncc([N+](=O)[O-])n1CCn1cc(C(O)c2ccccc2)nn1 (stereo not drawn)
4. Cc1ncc([N+](=O)[O-])n1CCn1cc(Cn2cccn2)nn1
5. Cc1ncc([N+](=O)[O-])n1CCO
6. Cc1ncc([N+](=O)[O-])n1CCn1cc(-c2ccccn2)nn1

[1, 2, 2, 2, 1, 1]

What does the data say about its MIC? Entry: COc1ccc(-c2cn(CCn3c([N+](=O)[O-])cnc3C)nn2)cc1
1
